B1: PPEF2 (parent)
chain: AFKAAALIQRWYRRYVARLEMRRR

Variants of: B1
measurement description: protein stability index of a GFP-peptide fusion (GPS, HEK-293T) (PSI 1-6); higher = more stable;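 further: lentivirally expressed fusions sorted by FACS into six bins by GFP to DsRed ratio, PSI derived from sequencing read proportions per bin multiplied by bin number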
run conditions: c terminus: a fixed tail appended
Entries and their protein stability index values follow.
Form: value (number only, do not type unit).

Recorded protein stability index (variant Y15W ): 3.61

Recorded protein stability index (variant Y12V ): 2.07

Recorded protein stability index (variant Q9V ): 2.99

Recorded protein stability index (variant E20Q ): 4.2

Recorded protein stability index (variant L19Q ): 3.87

Recorded protein stability index (variant L19Y ): 2.03

Recorded protein stability index (variant V16R ): 5.4

Recorded protein stability index (variant L19I ): 3.64

Next:
Recorded protein stability index (variant M21L ): 3.39

Recorded protein stability index (variant A4C ): 3.15

Recorded protein stability index (variant F2N ): 3.3

Recorded protein stability index (variant R24P ): 2.39

Recorded protein stability index (variant R18K ): 2.54

Recorded protein stability index (variant R18D ): 1.66

Recorded protein stability index (variant R10D ): 1.67

Recorded protein stability index (variant R18M ): 1.45

Recorded protein stability index (variant R14Q ): 2.74

Recorded protein stability index (variant R22C ): 2.01
